System: OVCAR-5 ovarian
procedure.text: NCI tumour cell line growth inhibition, 48 h
outcome.measure: TGI

Which TGI is reported for this compound? O=C(NC(CO)CO)c1ccc2cc(C(=O)N3CC(CCl)c4ccc([N+](=O)[O-])cc43)[nH]c2c1 (stereo unspecified) > 100 µM

And for `O=C(/C=C/c1ccc(Cl)cc1)c1ccncc1` ? > 100 µM

And for O=C1C(CN2CCCC2)CCCC1CN1CCCC1 (stereo unspecified) ? 13.2 µM

And for CCC(C)CC(CC)NCCN1CCN(C(CC)CC(C)CC)C1=S (stereo unspecified) ? 3.32 µM

And for `CCN1CCCCC(=N\O)/C(=N/O)CCCC1` ? > 100 µM

And for O=C1CC(Cl)c2c(Cl)sc(Cl)c21 (stereo unspecified) ? 34.7 µM

And for C=C1CO[C@@H]2C[C@@H]1CCC1(C)OC1CC/C(C)=C/CC[C@@]2(C)O (stereo partly specified) ? > 100 µM

And for Cc1nn(C(=O)c2ccc(Cl)cc2)c2c1C(c1ccco1)SC(N)=N2 (stereo unspecified) ? > 10 µM

And for `C=C(C(=O)OC)[C@@H]1C[C@@H](O)[C@]2(C)CC/C=C(\C)CCC[C@H](C)[C@H](O)C1O2` ? > 100 µM

And for `O=C(Nc1cccc(C(F)(F)F)c1)c1cc(-c2ccccc2)nc(=S)[nH]1` ? > 100 µM

And for COC1CCC(n2c([C@@H]3CCCC(=O)N3c3ccc(F)c(F)c3)nc3cc(-c4c(C)noc4C)ccc32)CC1 (stereo partly specified) ? > 100 µM

And for `NCC(=O)CCC(=O)O` ? > 100 µM

And for `CCc1nc(N)nc(N)c1-c1ccc(Cl)c(N=NN(C)C)c1` ? > 100 µM

And for `Cn1c(=O)c2[nH]c(-n3nc(-c4ccccc4)cc3N)nc2n(C)c1=O` ? > 100 µM

And for `COc1cc(/C=C2\CCc3ccccc3C2=O)cc(OC)c1OC` ? 27.9 µM

And for COc1ccc(CCC2NCCc3cc(OC)c(OC)cc32)cc1 (stereo unspecified) ? > 100 µM

And for `O=C(c1ccccc1)n1[nH]c(=O)n(-c2ccc(Cl)cc2)c1=O` ? > 100 µM

====

Tested on: SK-MEL-2 melanoma
procedure.text: NCI tumour cell line growth inhibition, 48 h
outcome.measure: TGI (µM)
Report the value in µM with no unit label.

# example entries with known answers
> print(dat)
                                   molecule  assay.value
1          CC(C)(CCC(C)(C)c1ccccc1)c1ccccc1         31.5
2  COC(=O)[C@]12CC[C@@H](C)[C@H](C)[C@@H]1C1=CC[C@@H]3[C@@]4(C)C=C(O)C(=O)C(C)=C4CC[C@@]3(C)[C@]1(C)CC2         31.6
3  Cn1cnc([N+](=O)[O-])c1Sc1nnc(C(F)(F)F)n1C         48.5

Which TGI is reported for this molecule? O=C1C(CN2CCCC2)CCCC1CN1CCCC1 (stereo not given) 37.4

====

Tested on: UACC-257 melanoma
procedure.text: NCI tumour cell line growth inhibition, 48 h
outcome.measure: TGI

> print(dat)
                                   compound  outcome.measure  assay.value
1  CCCN(CCC)c1c([N+](=O)[O-])cc(C(=O)N(C)C)cc1[N+](=O)[O-]              TGI     > 100 µM
2          CC(C)(CCC(C)(C)c1ccccc1)c1ccccc1              TGI      29.2 µM
3  C1C[OH+]CC[OH+]CC[OH+]CC[OH+]CC[OH+]CC[OH+]1.[Cl-].[Ta+5]              TGI     > 100 µM
4  COc1ccc(-c2nn(-c3cccc(NC(=O)Nc4cccc(C(F)(F)F)c4)c3)cc2-c2ccncc2)cc1Cl              TGI      10.8 µM
5  COc1ccc(/C=C/C(c2cc(OC)c(OC)c(OC)c2)n2cncn2)cc1O (stereo unspecified)              TGI     > 100 µM
6  COC(=O)c1ccccc1N=Cc1ccc(N(CCC#N)S(=O)(=O)c2ccccc2)cc1              TGI     > 100 µM

Which TGI is reported for this compound? `COC1=C(OC)C(=O)C(Cc2c(Cl)nc3n2CCS3)=C(C)C1=O` 22.2 µM

And for `O=c1cc2cc(O)[nH]c(=O)c2c(O)[nH]1` ? > 100 µM
